- testedOn: AMAN-2 (Golgi α-mannosidase II) (Caenorhabditis elegans)
- Sequence (Q2PJ74 entry or part of it): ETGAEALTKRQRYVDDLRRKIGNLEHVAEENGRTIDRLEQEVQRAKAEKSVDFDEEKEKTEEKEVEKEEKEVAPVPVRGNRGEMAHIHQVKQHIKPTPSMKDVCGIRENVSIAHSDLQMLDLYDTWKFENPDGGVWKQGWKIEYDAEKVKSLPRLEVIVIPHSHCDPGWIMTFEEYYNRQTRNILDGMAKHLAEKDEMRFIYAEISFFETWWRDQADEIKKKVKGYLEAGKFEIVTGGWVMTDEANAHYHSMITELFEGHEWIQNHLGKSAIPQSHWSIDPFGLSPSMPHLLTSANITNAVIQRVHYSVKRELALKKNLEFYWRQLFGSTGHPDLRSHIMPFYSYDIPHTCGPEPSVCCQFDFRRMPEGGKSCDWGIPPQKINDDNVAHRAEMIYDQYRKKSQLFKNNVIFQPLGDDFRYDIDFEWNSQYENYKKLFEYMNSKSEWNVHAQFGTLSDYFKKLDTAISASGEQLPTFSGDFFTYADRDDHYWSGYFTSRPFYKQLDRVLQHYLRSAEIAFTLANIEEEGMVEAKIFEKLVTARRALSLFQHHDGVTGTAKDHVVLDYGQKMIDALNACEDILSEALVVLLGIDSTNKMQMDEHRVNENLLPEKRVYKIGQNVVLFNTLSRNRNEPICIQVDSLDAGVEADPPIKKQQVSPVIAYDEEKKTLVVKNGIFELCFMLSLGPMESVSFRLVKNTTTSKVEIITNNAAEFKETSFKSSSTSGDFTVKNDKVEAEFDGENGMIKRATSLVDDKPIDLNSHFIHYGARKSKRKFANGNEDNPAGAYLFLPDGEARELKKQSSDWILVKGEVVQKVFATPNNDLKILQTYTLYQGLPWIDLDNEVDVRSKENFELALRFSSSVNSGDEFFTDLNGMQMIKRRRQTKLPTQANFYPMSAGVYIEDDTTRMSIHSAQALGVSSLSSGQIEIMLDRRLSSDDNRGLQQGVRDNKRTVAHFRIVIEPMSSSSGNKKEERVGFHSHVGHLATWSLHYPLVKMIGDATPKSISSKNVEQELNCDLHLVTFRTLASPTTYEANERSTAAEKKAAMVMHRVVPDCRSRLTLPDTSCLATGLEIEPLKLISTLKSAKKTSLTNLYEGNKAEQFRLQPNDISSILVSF
- protocolDescription: α-mannosidase inhibition assay with pNP-Man substrate, AMAN-2
- Assay type: biochemical
- assayContext: ratio of Ki values
- Description: The enzymes screened included two Golgi types (GMIIb and AMAN-2) and two lysosomal types (LManII and JBMan) (Table 1). […] The lyophilized derivatives used in the assay were dissolved in DMSO to the final concentration 50 mM and further diluted to a desired concentration in water. […] The reactions were terminated with two volumes (0.1 mL) of 0.5 M sodium carbonate and the production of p-nitrophenol was measured at 405 nm using a multimode reader Mithras LB943 (Berthold Technologies). […]
Examples of compounds with documented Selectivity index, SI [Ki (JBMan)/Ki (AMAN-2)] follow.

Some compounds with known Selectivity index, SI [Ki (JBMan)/Ki (AMAN-2)] results, for comparison:
| compound | testedOn | reportedMeasurement |
| --- | --- | --- |
| C[C@@H](O)[C@H]1NC[C@@H](O)[C@H]1O | AMAN-2 (Golgi α-mannosidase II) (Caenorhabditis elegans) | 0.6 |
| C[C@@H](O)[C@@H]1[C@H](O)[C@H](O)CN1Cc1ccccc1 | AMAN-2 (Golgi α-mannosidase II) (Caenorhabditis elegans) | 1.4 |

[in] Give Selectivity index, SI [Ki (JBMan)/Ki (AMAN-2)] only, for C[C@@H](O)[C@@H]1[C@H](O)[C@H](O)CN1Cc1ccc(I)cc1 , using AMAN-2 (Golgi α-mannosidase II) (Caenorhabditis elegans) data.
[out] 2.1

[in] Give AMAN-2 (Golgi α-mannosidase II) (Caenorhabditis elegans) Selectivity index, SI [Ki (JBMan)/Ki (AMAN-2)] for the following compound: C[C@@H](O)[C@@H]1[C@H](O)[C@H](O)CN1Cc1ccc2ccccc2c1
[out] 2.4

[in] Report its Selectivity index, SI [Ki (JBMan)/Ki (AMAN-2)] with AMAN-2 (Golgi α-mannosidase II) (Caenorhabditis elegans) as the test system: OC[C@@H](O)[C@H]1NC[C@@H](O)[C@H]1O [DIM, 1,4-dideoxy-1,4-imino-ᴅ-mannitol, reference compound]
[out] 0.6

----------
- testedOn: JBMan (Jack bean α-mannosidase) (Canavalia ensiformis, UniProt C0HJB3)
- Sequence (C0HJB3 1-981): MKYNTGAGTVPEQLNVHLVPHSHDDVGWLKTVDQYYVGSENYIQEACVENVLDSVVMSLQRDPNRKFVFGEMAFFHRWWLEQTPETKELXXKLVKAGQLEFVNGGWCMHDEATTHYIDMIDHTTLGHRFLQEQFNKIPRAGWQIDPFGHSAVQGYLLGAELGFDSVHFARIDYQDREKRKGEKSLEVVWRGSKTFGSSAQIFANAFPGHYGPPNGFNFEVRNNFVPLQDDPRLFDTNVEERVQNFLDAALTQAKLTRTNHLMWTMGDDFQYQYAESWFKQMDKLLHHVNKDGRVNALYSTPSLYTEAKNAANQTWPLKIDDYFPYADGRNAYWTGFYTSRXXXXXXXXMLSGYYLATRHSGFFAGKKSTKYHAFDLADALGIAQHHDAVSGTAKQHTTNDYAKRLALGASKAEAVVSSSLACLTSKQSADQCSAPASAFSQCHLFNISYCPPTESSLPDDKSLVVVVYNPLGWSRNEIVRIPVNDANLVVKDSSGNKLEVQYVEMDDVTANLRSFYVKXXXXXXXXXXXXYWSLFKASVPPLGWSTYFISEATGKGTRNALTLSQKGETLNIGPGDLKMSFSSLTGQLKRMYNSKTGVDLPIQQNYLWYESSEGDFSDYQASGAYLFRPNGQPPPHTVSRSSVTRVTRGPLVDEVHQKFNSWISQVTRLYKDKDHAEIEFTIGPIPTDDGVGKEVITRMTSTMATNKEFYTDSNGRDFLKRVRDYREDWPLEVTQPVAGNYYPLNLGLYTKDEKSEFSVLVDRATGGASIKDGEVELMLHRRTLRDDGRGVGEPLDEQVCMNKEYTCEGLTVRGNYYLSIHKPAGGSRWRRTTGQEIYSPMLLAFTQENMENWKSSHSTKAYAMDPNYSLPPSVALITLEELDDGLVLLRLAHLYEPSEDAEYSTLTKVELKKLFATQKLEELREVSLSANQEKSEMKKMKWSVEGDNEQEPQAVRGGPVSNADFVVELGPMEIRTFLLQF
# key: entry, value: pKi
Note: pKi values are expressed as the negative base-10 logarithm of concentration in M.

Here are 3 molecules together with their reported answers.
| molecule | pKi |
| --- | --- |
| C[C@@H](O)[C@@H]1[C@H](O)[C@H](O)CN1Cc1ccc(I)cc1 [compound 27] | 4.14 |
| C[C@@H](O)[C@@H]1[C@H](O)[C@H](O)CN1Cc1ccccc1 [compound 26] | 4.10 |
| C[C@@H](O)[C@H]1NC[C@@H](O)[C@H]1O [compound 29, 6-deoxy-DIM] | 6.92 |

[in] Return the recorded pKi value; entry: C[C@@H](O)[C@@H]1[C@H](O)[C@H](O)CN1Cc1ccc2ccccc2c1 [compound 28]
[out] 4.36

[in] Please look at this molecule and report its pKi: OC[C@@H](O)[C@H]1NC[C@@H](O)[C@H]1O [DIM, 1,4-dideoxy-1,4-imino-ᴅ-mannitol, reference compound]
[out] 6.42
